Each recorded value in this set is attributed to patent US6906094B2.

Reported IC50 values, rabbit reticulocyte 15-LO (Oryctolagus cuniculus).
Express your answer in nM, writing the number without its unit.

>>> value_reported("CCCCCCCCCCCCOC(=O)NS(=O)(=O)Nc1cc(-c2cc3cc(F)c(F)cc3[nH]2)ccc1OC [Example 1]")
17
>>> value_reported("COc1ccc(C(=O)Nc2ccc(F)c(F)c2)cc1NS(=O)(=O)NC(=O)Nc1cc(Cl)cc(Cl)c1 [Example 17]")
10

Then there is this molecule:
Challenge: Entry under review: COc1ccc(-c2cc3cc(F)c(F)cc3[nH]2)cc1NS(=O)(=O)NC(=O)Nc1cc(Cl)cc(Cl)c1 [Example 24] . Reported IC50?
Response given: 11

###

# MEASUREMENT_TARGET: rabbit reticulocyte 15-LO (Oryctolagus cuniculus, UniProt P12530)
# Sequence (P12530 1-663): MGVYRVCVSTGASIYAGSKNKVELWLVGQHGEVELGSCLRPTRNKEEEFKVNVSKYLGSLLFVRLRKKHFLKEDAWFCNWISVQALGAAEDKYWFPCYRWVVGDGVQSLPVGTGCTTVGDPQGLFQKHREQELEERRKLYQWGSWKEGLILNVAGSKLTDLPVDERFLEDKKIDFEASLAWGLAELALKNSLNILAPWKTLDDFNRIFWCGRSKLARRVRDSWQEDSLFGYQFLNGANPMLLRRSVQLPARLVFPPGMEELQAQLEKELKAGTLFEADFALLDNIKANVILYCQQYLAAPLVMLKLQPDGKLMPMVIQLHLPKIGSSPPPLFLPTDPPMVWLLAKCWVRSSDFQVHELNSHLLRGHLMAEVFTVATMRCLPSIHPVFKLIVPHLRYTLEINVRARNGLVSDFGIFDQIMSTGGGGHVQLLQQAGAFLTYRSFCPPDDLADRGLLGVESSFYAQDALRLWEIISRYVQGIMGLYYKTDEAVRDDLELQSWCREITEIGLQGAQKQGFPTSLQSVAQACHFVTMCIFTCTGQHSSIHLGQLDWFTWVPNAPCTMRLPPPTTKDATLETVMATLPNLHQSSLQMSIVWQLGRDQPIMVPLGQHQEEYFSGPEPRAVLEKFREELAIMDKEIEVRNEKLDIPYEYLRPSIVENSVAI
Listed below: pIC50 values for each entry.
Just so you know, pIC50 here is -log10 of the concentration in molar units; reply with that number alone.

>>> value_reported("COC(=O)COC(=O)NS(=O)(=O)Nc1cc(-c2cc3cc(F)c(F)cc3[nH]2)ccc1OC")
7.77
>>> value_reported("COc1ccc(-c2cc3cc(F)c(F)cc3[nH]2)cc1NS(=O)(=O)N(C)C(=O)OCCCOCc1ccccc1")
7.92
>>> value_reported("CNS(=O)(=O)Nc1cc(-c2cc3cc(F)c(F)cc3[nH]2)ccc1OC")
8.30

Challenge: Entry under review: CCCCCCCOC(=O)NS(=O)(=O)Nc1cc(-c2cc3cc(F)c(F)cc3[nH]2)ccc1OC . Reported pIC50?
Response given: 8.30

Challenge: Next record, please: COc1ccc(-c2cc3cc(F)c(F)cc3[nH]2)cc1NS(=O)(=O)NC(=O)OCC(=O)OCc1ccccc1
Response given: 8.70

Challenge: Next record, please: CCOC(=O)NS(=O)(=O)Nc1cc(-c2cc3cc(F)c(F)cc3[nH]2)ccc1OC
Response given: 7.82

Challenge: Next record, please: COc1ccc(C(=O)Nc2ccc(F)c(F)c2)cc1NS(=O)(=O)NC(=O)OCCc1ccccc1
Response given: 7.89

Challenge: Next record, please: COc1ccc(-c2cc3cc(F)c(F)cc3[nH]2)cc1NS(=O)(=O)NC(=O)Nc1ccc(C)cc1
Response given: 7.41

Challenge: Next record, please: COc1ccc(-c2cc3cc(F)c(F)cc3[nH]2)cc1NS(=O)(=O)NC(=O)OCCCO
Response given: 7.10

###

Listed below: melting point values for each entry.

These solved cases illustrate the format of a correct answer.
>>> value_reported("COc1ccc(C(=O)Nc2ccc(F)c(F)c2)cc1NS(=O)(=O)NC(=O)OCCN1C(=O)c2ccccc2C1=O")
"203 to 205 °C"
>>> value_reported("COC(=O)COC(=O)NS(=O)(=O)Nc1cc(-c2cc3cc(F)c(F)cc3[nH]2)ccc1OC (hydrate or solvate)")
"190 to 192 °C"

Challenge: Entry under review: COc1ccc(C(=O)Nc2ccc(F)c(F)c2)cc1NS(=O)(=O)NC(=O)OCCCOCc1ccccc1 . Reported melting point?
Response given: 178 to 179 °C

Challenge: Next record, please: COC(=O)COC(=O)NS(=O)(=O)Nc1cc(C(=O)Nc2ccc(F)c(F)c2)ccc1OC
Response given: 177 to 180 °C

Challenge: Next record, please: COc1ccc(-c2cc3cc(F)c(F)cc3[nH]2)cc1NS(=O)(=O)NC(=O)OCCOC(C)C (hydrate or solvate)
Response given: 158 to 163 °C

Challenge: Next record, please: COc1ccc(C(=O)Nc2ccc(F)c(F)c2)cc1NS(N)(=O)=O
Response given: 167 to 170 °C

Challenge: Next record, please: COc1ccc(-c2cc3cc(F)c(F)cc3[nH]2)cc1NS(=O)(=O)NC(=O)OCc1ccccc1
Response given: 177 to 180 °C

Challenge: Next record, please: COc1ccc(C(=O)Nc2ccc(F)c(F)c2)cc1NS(=O)(=O)NC(=O)Nc1cccc([N+](=O)[O-])c1 (hydrate or solvate)
Response given: 206 to 208 °C

Challenge: Next record, please: COc1ccc(C(=O)Nc2ccc(F)c(F)c2)cc1NS(=O)(=O)NC(=O)OCCCc1ccncc1 (hydrate or solvate)
Response given: 160 to 164 °C

Challenge: Next record, please: COc1ccc(C(=O)Nc2ccc(F)c(F)c2)cc1NS(=O)(=O)NC(=O)OCc1ccccc1
Response given: 173 to 176 °C

Challenge: Next record, please: CCOCCOC(=O)NS(=O)(=O)Nc1cc(C(=O)Nc2ccc(F)c(F)c2)ccc1OC
Response given: 179 to 182 °C

Challenge: Next record, please: COc1ccc(C(=O)Nc2ccc(F)c(F)c2)cc1NS(=O)(=O)NC(=O)OCCc1ccccc1 (hydrate or solvate)
Response given: 173 to 177 °C

Challenge: Next record, please: COc1ccc(C(=O)Nc2ccc(F)c(F)c2)cc1NS(=O)(=O)NC(=O)Nc1cc(C(F)(F)F)cc(C(F)(F)F)c1 (hydrate or solvate)
Response given: 175 to 178 °C

Challenge: Next record, please: CCCCCCCOC(=O)NS(=O)(=O)Nc1cc(-c2cc3cc(F)c(F)cc3[nH]2)ccc1OC
Response given: 178 to 180 °C

###

# MEASUREMENT_TARGET: human 15-LO (Homo sapiens)
# ASSAY: Human Lysate 15-LO Assay (HUM15LO)
# TEST_SETTINGS: recombinant human 15-LO, 174 μM linoleic acid, 15 minutes at 4° C., 13-HODE quantitated
Listed below: IC50 values for each entry.
Express your answer in nM, writing the number without its unit.

>>> value_reported("CNS(=O)(=O)Nc1cc(C(=O)Nc2ccc(F)c(F)c2)ccc1OC [Example 38]")
13
>>> value_reported("COc1ccc(C(=O)Nc2ccc(F)c(F)c2)cc1NS(=O)(=O)NC(=O)Nc1ccc(C(=O)O)cc1 [Example 65]")
273
>>> value_reported("COc1ccc(C(=O)Nc2ccc(F)c(F)c2)cc1NS(=O)(=O)NC(=O)OCCCO [Example 46]")
830

Challenge: Find IC50 (human 15-LO (Homo sapiens)) for the entry COc1ccc(C(=O)Nc2ccc(F)c(F)c2)cc1NS(=O)(=O)NC(=O)OCCc1cccs1 [Example 7]
Response given: 79

###

Listed below: IC50 values for each entry.
# MEASUREMENT_TARGET: human 15-LO (Homo sapiens, UniProt P16050)
# Sequence (P16050 1-662): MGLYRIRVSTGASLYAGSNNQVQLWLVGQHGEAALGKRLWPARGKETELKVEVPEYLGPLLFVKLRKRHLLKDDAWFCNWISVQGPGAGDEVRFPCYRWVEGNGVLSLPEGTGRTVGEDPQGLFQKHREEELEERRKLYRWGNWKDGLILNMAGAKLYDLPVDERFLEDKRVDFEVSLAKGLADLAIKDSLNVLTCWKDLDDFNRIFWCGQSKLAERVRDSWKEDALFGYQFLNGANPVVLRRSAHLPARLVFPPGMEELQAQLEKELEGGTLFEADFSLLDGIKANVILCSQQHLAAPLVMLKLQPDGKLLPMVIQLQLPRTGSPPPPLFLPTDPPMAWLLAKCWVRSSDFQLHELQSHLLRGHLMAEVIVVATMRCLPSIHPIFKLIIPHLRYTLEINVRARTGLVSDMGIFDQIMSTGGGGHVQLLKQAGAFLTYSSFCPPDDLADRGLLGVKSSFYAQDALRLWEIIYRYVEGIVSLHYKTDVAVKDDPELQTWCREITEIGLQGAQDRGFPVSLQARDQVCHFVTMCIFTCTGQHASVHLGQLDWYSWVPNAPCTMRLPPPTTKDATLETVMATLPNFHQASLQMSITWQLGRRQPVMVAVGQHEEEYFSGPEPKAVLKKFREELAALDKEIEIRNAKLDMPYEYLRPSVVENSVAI
# ASSAY: Human Lysate 15-LO Assay (HUM15LO)
# TEST_SETTINGS: recombinant human 15-LO, 174 μM linoleic acid, 15 minutes at 4° C., 13-HODE quantitated
Express your answer in µM, writing the number without its unit.

These solved cases illustrate the format of a correct answer.
>>> value_reported("COc1ccc(-c2cc3cc(F)c(F)cc3[nH]2)cc1NS(=O)(=O)NC(=O)Nc1ccc(Cl)cc1 [Example 27]")
0.044
>>> value_reported("CNS(=O)(=O)Nc1cc(-c2cc3cc(F)c(F)cc3[nH]2)ccc1OC [Example 37]")
0.007
>>> value_reported("COc1ccc(C(=O)Nc2ccc(F)c(F)c2)cc1NS(N)(=O)=O [Example 55]")
0.029

Challenge: Entry under review: CCOC(=O)NS(=O)(=O)Nc1cc(C(=O)Nc2ccc(F)c(F)c2)ccc1OC [Example 19] . Reported IC50?
Response given: 0.339

Challenge: Next record, please: COc1ccc(C(=O)Nc2ccc(F)c(F)c2)cc1NS(=O)(=O)NC(=O)OCCc1ccccc1 [Example 41]
Response given: 0.069

Challenge: Next record, please: CCOC(=O)NS(=O)(=O)Nc1cc(-c2cc3ccccc3[nH]2)ccc1OC [Example 26]
Response given: 0.63

Challenge: Next record, please: COc1ccc(-c2cc3cc(F)c(F)cc3[nH]2)cc1NS(=O)(=O)NC(=O)OCc1ccccc1 [Example 36]
Response given: 0.013

Challenge: Next record, please: COc1ccc(-c2cc3cc(F)c(F)cc3[nH]2)cc1NS(=O)(=O)NC(=O)OCCCO [Example 45]
Response given: 0.133
